tested_system: T1, Macaca fascicularis (mf) RET.mmh (Macaca fascicularis)
T1 construct: also called monkey RET
T1 chain: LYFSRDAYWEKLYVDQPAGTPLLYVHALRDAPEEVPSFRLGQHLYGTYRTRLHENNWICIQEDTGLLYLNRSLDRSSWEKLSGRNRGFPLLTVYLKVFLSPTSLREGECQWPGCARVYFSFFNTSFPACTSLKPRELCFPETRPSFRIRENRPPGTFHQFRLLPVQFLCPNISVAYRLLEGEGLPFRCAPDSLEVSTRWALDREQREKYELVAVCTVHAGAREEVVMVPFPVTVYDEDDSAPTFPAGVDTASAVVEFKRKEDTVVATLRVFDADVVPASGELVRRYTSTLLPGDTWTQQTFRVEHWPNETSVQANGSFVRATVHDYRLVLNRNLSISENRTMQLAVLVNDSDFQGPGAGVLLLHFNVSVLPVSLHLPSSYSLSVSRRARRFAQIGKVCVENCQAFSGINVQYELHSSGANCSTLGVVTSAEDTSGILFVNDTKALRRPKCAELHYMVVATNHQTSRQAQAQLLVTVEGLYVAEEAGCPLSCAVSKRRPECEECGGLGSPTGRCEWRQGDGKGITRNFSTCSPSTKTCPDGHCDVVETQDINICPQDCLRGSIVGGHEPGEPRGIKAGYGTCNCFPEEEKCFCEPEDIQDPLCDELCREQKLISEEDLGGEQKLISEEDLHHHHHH
protocol_text: SPR Biacore T200, mAb capture, 25 C
Method: Binding affinities and kinetic constants of human anti-RET antibodies were determined by surface plasmon resonance (Biacore T200) at […] (Tables 2-3). […] Binding equilibrium dissociation constants (KD) and dissociative half-lives (t_{1/2}) were calculated from the kinetic rate constants as: KD [M]=kd/kₐ; and t_{1/2}(min)=(ln2/(60*kd). Calculations were performed using BiacoreT200 evaluation software v1.0.
Listing: kon of selected binders
Supply the numeric figure in M⁻¹ s⁻¹, leaving out any unit text.

Query: If you can, please state the reported kon value of H4H8058P (antibody, human IgG4, V domains shown, human IgG4 Fc (H4H prefix)) VH: QVQLVESGGGVGQPGRSLRLSCVASGFTFRNYGMHWVRQAPGKGLDWVAIIGYDGSKEYNVDSVKGRFTISRDNSKNTLYLQMNSLGAEDTAIYYCARESPITGTTFDYWGQGTLVTVSS VL: DIQMTQSPPSLSASVGDRVTITCRASQSIGNYLNWYQQKPGKAPKILIYAASRLQSGVPSRFSGSGSGTDFTLTISSLQPEDFATYYCQQSYSTPLTFGGGTKVEIK .
Result: 230000

Query: If you can, please state the reported kon value of H4H8046P (antibody, human IgG4, V domains shown, human IgG4 Fc (H4H prefix)) VH: QVQLVQSRDEVKKPGASVKVSCKASGYTFTTYGISWVRQAPGQGLEWMGWINTYNGDTNYAQKVQDRVIMTTDTSTSTAYMELRSLRSDDTAVYFCAGARPLGGRRAFDIWGQGTMVTVSS VL: DIQMTQSPSSLSASVGDRVTITCRASQGISHYLAWYQQKPGKVPKLLIYAASTLQSGVPSRFSGSGSGTDFTLTISSLQPEDVATYYCQKYNSVPWTFGQGTKVEIK .
Result: 278000

Query: If you can, please state the reported kon value of H4H8085P (antibody, human IgG4, V domains shown, human IgG4 Fc (H4H prefix)) VH: QVQLVESGGGVVQPGRSLRLSCTASGFTFDNYGMHWVRQAPGKGLEWVAVISYDGSNTFYADSVKGRFTISRDNSKNALYLQMNSLRAEDTAVYYCAKDLEFDILIGYPFDSWGRGTLVTVSS VL: DIQLTQSPSFLSASVGDRVTITCWASQDISRYLAWYQQKPGKAPNLLIYAASTLQSGVPSRFSGSGSGTEFTLTINSLQPEDFATYYCQQLFSYPRTFGQGTKVEIK .
Result: 66000
